Biological target: human p38 kinase alpha (Homo sapiens, UniProt Q16539)
Sequence (Q16539 whole entry): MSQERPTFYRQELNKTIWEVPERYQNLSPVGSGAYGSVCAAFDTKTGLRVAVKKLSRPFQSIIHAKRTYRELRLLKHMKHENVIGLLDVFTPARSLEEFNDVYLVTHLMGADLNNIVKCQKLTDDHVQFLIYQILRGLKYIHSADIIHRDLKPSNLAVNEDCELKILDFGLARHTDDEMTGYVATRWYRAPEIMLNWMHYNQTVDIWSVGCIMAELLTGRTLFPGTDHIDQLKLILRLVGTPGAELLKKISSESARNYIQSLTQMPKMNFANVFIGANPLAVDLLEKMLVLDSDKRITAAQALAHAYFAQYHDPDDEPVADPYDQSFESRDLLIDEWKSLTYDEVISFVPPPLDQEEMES
Assay: p38 alpha kinase assay (PHAS-I / 32P-ATP format or EGFRP / 33P-ATP format)
Settings: inhibition of activated human p38 kinase alpha; the text does not say which of the two in vitro formats was used
Procedure: The ability of compounds to inhibit human p38 kinase alpha was evaluated using two in vitro assay methods. […] Following incubation, 20 μl of reaction mixture was transferred to a high capacity streptavidin coated filter plate (SAM-streptavidin-matrix, Promega) prewetted with phosphate buffered saline. […] The plates were sealed and counted. […]
pIC50: −log10 of the molar value.
Some compounds, each annotated with its measured pIC50.

# compound, result
measured = [
    ("Cc1c(/C=N/O)c(OCc2ccc(F)cc2F)c(Br)c(=O)n1-c1c(F)cccc1F [Example 565]", "4.00 to 4.60"),
]

Task item: Field request: pIC50 | item: Cc1ccc(C(N)=O)cc1-n1c(C)cc(OCc2ccc(F)cc2F)c(Br)c1=O (single isomer, unassigned) [Example 736]
Reply: > 6.00

====

Consider the following molecules and their measured melting point readings.

Example entries and their recorded answers appear below.
# molecule, melting point
records = [
    ("CS(=O)(=O)c1cccc(Cn2ccc(OCc3ccc(F)cc3F)c(Cl)c2=O)c1", "155 to 157 °C"),
    ("NCc1cccc(Cn2ccc(OCc3ccc(F)cc3)c(Br)c2=O)c1.O=C(O)C(F)(F)F", "127 to 139 °C"),
    ("NC(=O)Cc1ccccc1Cn1ccc(OCc2ccc(F)cc2F)c(Br)c1=O", "178 to 183 °C"),
    ("NCc1cccc(Cn2ccc(OCc3ccc(F)cc3F)c(Br)c2=O)c1.O=C(O)C(F)(F)F", "80 to 84 °C"),
    ("Cc1ccc(COc2ccn(Cc3ccccc3)c(=O)c2Br)cc1", "149 to 149.7 °C"),
    ("N#Cc1ccccc1Cn1ccc(OCc2ccc(F)cc2F)c(Br)c1=O", "194 to 197 °C"),
    ("O=c1c(Br)c(OCc2ccccc2)ccn1CCc1cccs1", "128 to 129.5 °C"),
    ("NC(=O)c1cccc(Cn2ccc(OCc3ccc(F)cc3F)c(Br)c2=O)c1", "198 to 201 °C"),
]

Task item: # get_value(readout='melting point', item= Br.Cn1ccc(OCc2ccccc2)c(Br)c1=O )
Reply: 105.3 to 105.6 °C

Task item: What does the record list as melting point for O=c1cc(OCc2cccc(Cl)c2)ccn1Cc1ccccc1 ?
Reply: 95.5 to 95.7 °C

Task item: Requested field: melting point. Item: COC(=O)c1ccc(Cn2ccc(OCc3ccc(F)cc3F)c(Br)c2=O)cc1
Reply: 136 to 139 °C

Task item: Any idea what its melting point is? The molecule is CC(C)NCc1ccc(Cn2ccc(OCc3ccc(F)cc3F)c(Cl)c2=O)cc1
Reply: 146 to 151 °C

Task item: Value lookup for melting point; key = CN(C)Cc1cccc(Cn2ccc(OCc3ccc(F)cc3F)c(Br)c2=O)c1
Reply: 103 to 107 °C

Task item: Which measured melting point value corresponds to O=c1c(I)c(OCc2ccc(F)cc2F)ccn1Cc1cccc(F)c1 ?
Reply: 164 to 167 °C

Task item: Value lookup for melting point; key = Cc1c(OCc2ccc(F)cc2F)cc(C)n(C2CCCCC2)c1=O
Reply: 118 to 120 °C

Task item: Query: melting point; subject: Cc1c(OCc2ccc(F)cc2F)ccn(Cc2cccc(F)c2)c1=O
Reply: 127 to 129 °C

Task item: Name the recorded melting point for NCCc1cccc(Cn2ccc(OCc3ccc(F)cc3F)c(Br)c2=O)c1.O=C(O)C(F)(F)F .
Reply: 70 to 74 °C

Task item: # melting point lookup, item O=c1c(Br)c(OCc2ccc(F)c(F)c2)ccn1Cc1cccc(F)c1
Reply: 172 to 174 °C

Task item: For the molecule NC(=NO)c1ccc(Cn2ccc(OCc3ccccc3)c(Br)c2=O)cc1 , what melting point is on record?
Reply: 210.2 to 212.2 °C

Task item: Give the measured melting point of O=c1cc(OCc2c(Cl)cccc2Cl)ccn1Cc1ccccc1 .
Reply: 151.6 to 152 °C

Task item: I would be grateful if you could share the reported melting point for NC(=O)c1ccc(Cn2ccc(OCc3ccc(F)cc3F)c(Cl)c2=O)cc1 .
Reply: 235 to 238 °C

Task item: Name the recorded melting point for NCc1cccc(Cn2ccc(OCc3ccc(F)cc3F)c(Br)c2=O)c1F .
Reply: 160 to 163 °C

Task item: GET /values?readout=melting point&item= O=c1c(Br)c(OCc2ccc(F)cc2)ccn1CC1CC1
Reply: 139 to 141 °C

Task item: Which melting point reading was recorded for the molecule O=c1c(Br)c(OCc2ccccc2Cl)ccn1Cc1ccccc1 ?
Reply: 143.3 to 145.5 °C

====

measurement-label: melting point

# chem-smiles, result
measured = [
    ("CC(C)NCc1cccc(Cn2ccc(OCc3ccc(F)cc3F)c(Br)c2=O)c1", "109 to 110 °C"),
    ("CCOC(=O)Cc1cccc(Cn2ccc(OCc3ccc(F)cc3F)c(Br)c2=O)c1", "95 to 98 °C"),
]

Moving on to another compound below.
Task item: Please look up its melting point: O=C(O)C(F)(F)F.O=c1c(Cl)c(OCc2ccc(F)cc2F)ccn1Cc1cccc2cnccc12
Reply: 235 to 238 °C

====

Catalogue of melting point readings, one per entry.

Example molecules with recorded melting point:
# chem-smiles, measurement-label, result
measured = [
    ("O=c1c(Br)c(OCc2ccccc2)ccn1CCc1ccsc1", "melting point", "134 to 134.3 °C"),
    ("NC(=O)c1ccc(Cn2ccc(OCc3ccc(F)cc3F)c(Br)c2=O)cc1", "melting point", "235 to 238 °C"),
]

Task item: Value lookup for melting point; key = CS(=O)(=O)c1ccc(Cn2ccc(OCc3ccc(F)cc3F)c(Cl)c2=O)cc1
Reply: 223 to 225 °C

Task item: For the molecule shown here, CNCc1cccc(Cn2ccc(OCc3ccc(F)cc3F)c(Br)c2=O)c1 , give the reported melting point.
Reply: 107 to 111 °C

Task item: Data request, read-out melting point, for COC(=O)c1cccc(Cn2ccc(OCc3ccc(F)cc3F)c(Cl)c2=O)c1F
Reply: 171 to 174 °C

Task item: # query: melting point of entry O=c1c(Br)c(SCc2ccccc2)ccn1Cc1ccccc1
Reply: 180.6 to 182.1 °C

Task item: Would you mind telling me what melting point value was observed for N#CCc1cccc(Cn2ccc(OCc3ccc(F)cc3F)c(Br)c2=O)c1 ?
Reply: 120 to 121 °C

Task item: # input molecule: NC(=O)c1cccc(Cn2ccc(OCc3ccc(F)cc3F)c(Cl)c2=O)c1F ; wanted: its melting point
Reply: 252 to 254 °C

Task item: Entry under review: CC(C)(C)OC(=O)NCc1cccc(Cn2ccc(OCc3ccc(F)cc3)c(Br)c2=O)c1 . Reported melting point?
Reply: 136 to 138 °C

====

measurement-label: melting point

Example cases with answers are listed next.
# compound, result
measured = [
    ("O=c1c(Cl)c(OCc2ccc(F)cc2F)ccn1Cc1ccc2[nH]ccc2c1", "152 to 153 °C"),
    ("COC(=O)c1ccccc1Cn1ccc(OCc2ccc(F)cc2)c(Br)c1=O", "161 to 165 °C"),
    ("CN(C)Cc1ccc(Cn2ccc(OCc3ccc(F)cc3F)c(Br)c2=O)cc1", "111 to 113 °C"),
    ("O=c1c(Cl)c(OCc2ccc(F)cc2F)ccn1Cc1cccc2c1CCNC2", "180 to 184 °C"),
    ("Cl.O=c1c(Br)c(OCc2ccccc2)ccn1CC1CCCNC1 (centres unmarked)", "138.1 to 139.2 °C"),
    ("Cl.O=c1c(Br)c(OCc2ccccc2)ccn1CC1CCNCC1", "207.9 °C"),
    ("NC(=O)Cc1cccc(Cn2ccc(OCc3ccc(F)cc3F)c(Br)c2=O)c1", "164 to 167 °C"),
    ("O=c1cc(OCc2ccccc2Cl)ccn1Cc1ccccc1", "124.6 to 125 °C"),
]

Task item: Please give the measured melting point for this compound: O=c1c(Br)c(OCc2ccc(F)c(F)c2F)ccn1Cc1cccc(F)c1
Reply: 176 to 178 °C

Task item: # get_value(readout='melting point', item= O=c1c(Cl)c(OCc2ccc(F)cc2F)ccn1Cc1ccc2c(c1)CCN2 )
Reply: 137 to 139 °C

Task item: Bench note: what melting point did Cc1ccc(Cn2ccc(OCc3ccccc3)c(Br)c2=O)cc1 show?
Reply: 150.4 to 151.2 °C

Task item: Entry under review: CC(C)(C)OC(=O)NCc1cccc(Cn2ccc(OCc3ccc(F)cc3F)c(Br)c2=O)c1 . Reported melting point?
Reply: 80 to 84 °C

Task item: Need melting point, item O=c1c(Br)c(OCc2ccccc2C(F)(F)F)ccn1Cc1ccccc1
Reply: 133.2 to 133.5 °C

Task item: Please report the recorded melting point for COC(=O)c1cccc(Cn2ccc(OCc3ccc(F)cc3F)c(Br)c2=O)c1 .
Reply: 115 to 117 °C
